Listing of recorded Selectivity index (SI) II/XII by entry.
- Tested on: hCA XII (Homo sapiens, UniProt O43570)
- Construct: made in house
- Sequence (O43570 25-354): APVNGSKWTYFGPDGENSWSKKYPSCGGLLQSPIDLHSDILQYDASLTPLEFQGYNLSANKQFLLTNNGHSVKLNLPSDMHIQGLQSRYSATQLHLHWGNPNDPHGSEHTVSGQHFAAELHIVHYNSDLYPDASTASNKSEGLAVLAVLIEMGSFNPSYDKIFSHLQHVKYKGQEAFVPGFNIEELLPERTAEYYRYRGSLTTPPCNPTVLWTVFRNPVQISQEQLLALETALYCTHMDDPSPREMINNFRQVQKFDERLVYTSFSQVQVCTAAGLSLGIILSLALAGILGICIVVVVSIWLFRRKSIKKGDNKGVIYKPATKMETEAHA
- Method: stopped-flow CO2 hydrase assay, hCA XII
- Assay type: biochemical
- Condition description: hCA XII over hCA II
- Excerpt: An Applied Photophysics stopped-flow instrument has been used for assaying the CA-catalysed CO2 hydration activity, as reported earlier. […] All hCA isoforms were recombinant proteins, being obtained in-house as reported earlier.

COc1ccc2cc3[n+](cc2c1OCCCn1cc(CCOc2ccc4ccc(=O)oc4c2)nn1)CCc1cc2c(cc1-3)OCO2 > 529.1
COc1ccc2cc3[n+](cc2c1OCCCn1cc(COc2ccc4ccc(=O)oc4c2)nn1)CCc1cc2c(cc1-3)OCO2 > 332.2

# input Respond only with Selectivity index (SI) II/XII recorded for `COc1ccc2cc3[n+](cc2c1OCCCCn1cc(COc2ccc4ccc(=O)oc4c2)nn1)CCc1cc2c(cc1-3)OCO2`
# output > 1190
